Hello, the source for this data is ChEMBL document CHEMBL3600335, in case you need it.

Biological target: Albumin (Homo sapiens)
Sequence (P02768 whole entry): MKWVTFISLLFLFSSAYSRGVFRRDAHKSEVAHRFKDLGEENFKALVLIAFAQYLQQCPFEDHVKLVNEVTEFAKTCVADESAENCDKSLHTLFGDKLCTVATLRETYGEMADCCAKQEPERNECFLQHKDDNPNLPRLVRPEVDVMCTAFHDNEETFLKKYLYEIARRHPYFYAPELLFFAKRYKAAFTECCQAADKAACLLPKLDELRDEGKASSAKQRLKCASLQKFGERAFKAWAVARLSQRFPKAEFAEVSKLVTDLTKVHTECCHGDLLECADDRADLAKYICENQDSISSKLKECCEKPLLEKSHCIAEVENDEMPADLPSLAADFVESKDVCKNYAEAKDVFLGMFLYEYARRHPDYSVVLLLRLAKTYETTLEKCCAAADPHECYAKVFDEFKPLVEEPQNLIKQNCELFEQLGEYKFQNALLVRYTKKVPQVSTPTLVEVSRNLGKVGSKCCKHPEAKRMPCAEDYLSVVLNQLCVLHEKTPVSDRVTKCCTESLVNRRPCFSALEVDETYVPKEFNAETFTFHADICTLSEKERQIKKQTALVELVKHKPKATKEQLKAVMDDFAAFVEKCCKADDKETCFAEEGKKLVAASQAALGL
Assay: Binding affinity to human serum albumin with excitation at 295 nm after 30 mins by fluorescence spectrophotometric analysis
Assay type: ADME
observation-type: Kd (µM)

INSERT INTO results (entry_smiles, observation_type, number) VALUES
  ('C=C(C)[C@@H]1CC[C@]2(C(=O)[O-])CC[C@]3(C)[C@H](CC[C@@H]4[C@@]5(C)CC[C@H](O)C(C)(C)[C@@H]5CC[C@]43C)[C@@H]12.CCCCCCCCCCCC[N+](C)(C)Cc1ccccc1', 'Kd', 1.9),
  ('C=C(C)[C@@H]1CC[C@]2(C(=O)N[C@H](C)C(=O)[O-])CC[C@]3(C)[C@H](CC[C@@H]4[C@@]5(C)CC[C@H](O)C(C)(C)[C@@H]5CC[C@]43C)[C@@H]12.C[N+](C)(C)CCO', 'Kd', 37);

====

Assay: Solubility of the compound in water at room temperature
Type: physicochemical
observation-type: solubility

INSERT INTO measurements (entry_smiles, observation_type, result) VALUES
  ('C=C(C)[C@@H]1CC[C@]2(C(=O)O)CC[C@]3(C)[C@H](CC[C@@H]4[C@@]5(C)CC[C@H](O)C(C)(C)[C@@H]5CC[C@]43C)[C@@H]12', 'solubility', '0.02 µg/mL');
